# target: C-CBL (Homo sapiens)
# Construct: endogenous in cells; host or cells: Jurkat HiBit-IL2 reporter cells, CBL-B knocked out by CRISPR
# method.summary: Jurkat HiBit-IL2 assay (CBL-B KO), reporter cell line expressing C-CBL only
# Assay type: cell-based
# measurement.conditions: CBL-B KO (expressing C-CBL only), geometric mean, Table 16b (further repetition), read-out: CBL-B KO EC50 (nM) GMean
# From the text: Jurkat HiBit-IL2 Assay (WT, c-CBL KO, CBL-B KO) The purpose of the Jurkat HiBit-IL2 assay is to evaluate the effect of the inhibition of CBL-B and/or C-CBL on TCR/CD28 stimulated interleukin-2 (IL-2) secretion. The expression of IL-2 can then be accurately measured by HiBit luciferase assay. Further, C-CBL or CBL-B was knocked out by CRISPR respectively in this Jurkat HiBit-IL2 reporter cell line to create reporter cell line expressing CBL-B only (c-CBL knockout (KO)) or C-CBL only (CBL-B KO). […]
So I've got a bunch of molecules here, and I need their EC50 values.
Return type: number; implicit unit nM.

## Input Lookup: EC50 / C-CBL (Homo sapiens) / C[C@H](NC1CCC1)c1nc(C(F)(F)F)cc2c(-c3cccc([C@H](c4nncn4C)C4COC4)c3)n[nH]c12 (single isomer, unassigned)
## Output 1070

## Input Lookup: EC50 / C-CBL (Homo sapiens) / CC(NC1CCC1)c1nc(C2CC2)cc2c(-c3cccc(C4(Cc5nncn5C)COC4)c3)n[nH]c12 (single isomer, unassigned) [Example H4]
## Output 28

## Input Lookup: EC50 / C-CBL (Homo sapiens) / C[C@@H](N[C@@H]1COC[C@@H]1O)c1nc(C(F)(F)F)cc2c(-c3cccc([C@H](c4nncn4C)C4CCC4)c3)n[nH]c12 (single isomer, unassigned)
## Output 365

## Input Lookup: EC50 / C-CBL (Homo sapiens) / C[C@H](N[C@H]1CCC(F)(F)C1)c1nc(C(F)(F)F)cc2c(-c3cccc(C4(Cc5nncn5C)COC4)c3)n[nH]c12 (single isomer, unassigned)
## Output 16

## Input Lookup: EC50 / C-CBL (Homo sapiens) / CC(NCCO)c1nc(C(F)(F)F)cc2c(-c3cccc([C@H](c4nncn4C)C4CCC4)c3)n[nH]c12 (single isomer, unassigned) [Example C42]
## Output 635

----------
# target: C-CBL (residues 46-435) (Homo sapiens)
# Construct: Purified CBL-B (residues 36-427) and C-CBL (residues 46-435) proteins from baculovirus-infected insect cells; made in house; host or cells: baculovirus-infected insect cells
# method.summary: Ligand Displacement Assay (LDA), HTRF competitive binding against BODIPY-labeled fluorescent tracer, C-CBL
# measurement.conditions: geometric mean of the number of tests, read-out: C-CBL Ki (nM) GMean
The threshold is 200 nM. Values of Ki beneath it are tagged met; values meeting or exceeding it are tagged not met.

## Input Quick check: Ki of C[C@H](c1nc(C(F)(F)F)cc2c(-c3cccc(C4(Cc5nncn5C)COC4)c3)n[nH]c12)N1CCC1 (single isomer, unassigned) under 200 nM?
## Output met

## Input Quick check: Ki of Cn1cnnc1[C@@H](c1cccc(-c2n[nH]c3c(CN4C[C@@H](F)[C@H](F)C4)nc(C(F)(F)F)cc23)c1)C1CCC1 under 200 nM?
## Output not met

## Input Quick check: Ki of Cn1cnnc1[C@@H](c1cccc(-c2n[nH]c3c(C4CCCCN4)nc(C(F)(F)F)cc23)c1)C1CCC1 (single isomer, unassigned) [Example L2] under 200 nM?
## Output not met

## Input Quick check: Ki of C[C@@H](c1nc(C(F)(F)F)cc2c(-c3cccc(C4(Cc5nncn5C)COC4)c3)n[nH]c12)N(C)C (single isomer, unassigned) under 200 nM?
## Output not met

## Input Quick check: Ki of CC(NC[C@H](C)O)c1nc(C(F)(F)F)cc2c(-c3cccc([C@H](c4nncn4C)C4CCCCC4)c3)n[nH]c12 (single isomer, unassigned) [Example C99] under 200 nM?
## Output met

## Input Quick check: Ki of CC(N[C@H]1CCOC1)c1nc(C(F)(F)F)cc2c(-c3cccc(C4(Cc5nncn5C)COC4)c3)n[nH]c12 (single isomer, unassigned) [Example C81] under 200 nM?
## Output met

----------
# target: CBL-B (Homo sapiens)
# Construct: endogenous in cells; host or cells: Jurkat HiBit-IL2 reporter cells, C-CBL knocked out by CRISPR
# method.summary: Jurkat HiBit-IL2 assay (c-CBL KO), reporter cell line expressing CBL-B only
# Assay type: cell-based
# measurement.conditions: C-CBL KO (expressing CBL-B only), geometric mean, Table 16b (further repetition), read-out: C-CBL KO EC50 (nM) GMean
So I've got a bunch of compounds here, and I need their EC50 values.
Write the numeric value and append its unit.

## Input Lookup: EC50 / CBL-B (Homo sapiens) / CC(O)CNC(C)c1nc(C2CC2)cc2c(-c3cccc(C(c4nncn4C)C4CCC4)c3)n[nH]c12 (single isomer, unassigned) [Example H2]
## Output 41 nM

## Input Lookup: EC50 / CBL-B (Homo sapiens) / CC[C@H](c1cccc(-c2n[nH]c3c([C@@H](C)NC[C@H](C)O)nc(C(F)(F)F)cc23)c1)c1nncn1C (single isomer, unassigned)
## Output 33 nM

## Input Lookup: EC50 / CBL-B (Homo sapiens) / C[C@@H](N[C@@H]1CCOC1)c1nc(C(F)(F)F)cc2c(-c3cccc([C@H](c4nncn4C)C4CCC4)c3)n[nH]c12 (single isomer, unassigned)
## Output 67 nM

----------
# target: C-CBL (46-435) (Homo sapiens)
# Construct: N-terminal biotinylated WT CBL-B (36-427) and C-CBL (46-435) were captured on a streptavidin (SA) coated sensor chip
# method.summary: Surface Plasmon Resonance (SPR) assay, binding affinity and kinetics, C-CBL
# measurement.conditions: SPR at 10° C., biotinylated C-CBL (46-435) on streptavidin chip; geometric mean; read-out: C-CBL SPR Kd (nM) GMean
So I've got a bunch of compounds here, and I need their Kd values.
Write the numeric value and append its unit.

## Input Recorded Kd for C[C@@H](c1nc(C(F)(F)F)cc2c(-c3cccc(C4(Cc5nncn5C)COC4)c3)n[nH]c12)N1CC(F)(F)C1 (single isomer, unassigned) , please?
## Output 83.9 nM

## Input Recorded Kd for C[C@@H](c1nc(C(F)(F)F)cc2c(-c3cccc(C4(Cc5nncn5C)COC4)c3)n[nH]c12)N1CCNCC1 (single isomer, unassigned) , please?
## Output 36.1 nM

## Input Recorded Kd for Cn1cnnc1[C@@H](c1cccc(-c2n[nH]c3c(CN[C@H]4CCOC4)nc(C(F)(F)F)cc23)c1)C1CCC1 [Example D1] , please?
## Output 208 nM

----------
# target: WT CBL-B (36-427) (Homo sapiens, UniProt Q13191)
# Construct: N-terminal biotinylated WT CBL-B (36-427) and C-CBL (46-435) were captured on a streptavidin (SA) coated sensor chip
# method.summary: Surface Plasmon Resonance (SPR) assay, binding affinity and kinetics, CBL-B
# measurement.conditions: SPR at 10° C., biotinylated WT CBL-B (36-427) on streptavidin chip; geometric mean; read-out: CBL-B SPR Kd (nM) GMean
So I've got a bunch of compounds here, and I need their Kd values.
Return type: number; implicit unit nM.

## Input Lookup: Kd / WT CBL-B (36-427) (Homo sapiens, UniProt Q13191) / Cn1cnnc1CC1(c2cccc(-c3n[nH]c4c(CN[C@H]5CCOC5)nc(C(F)(F)F)cc34)c2)COC1
## Output 14.5

## Input Lookup: Kd / WT CBL-B (36-427) (Homo sapiens, UniProt Q13191) / Cn1cnnc1CC1(c2cccc(-c3n[nH]c4ncc(C(F)(F)F)cc34)c2)COC1
## Output 67.9

## Input Lookup: Kd / WT CBL-B (36-427) (Homo sapiens, UniProt Q13191) / CC(NC1CNC1)c1nc(C(F)(F)F)cc2c(-c3cccc(C4(Cc5nncn5C)COC4)c3)n[nH]c12 (single isomer, unassigned) [Example C27]
## Output 8.7

## Input Lookup: Kd / WT CBL-B (36-427) (Homo sapiens, UniProt Q13191) / C[C@@H](NC1CC(F)(F)C1)c1nc(C(F)(F)F)cc2c(-c3cccc([C@H](c4nncn4C)C4CCC4)c3)n[nH]c12 (single isomer, unassigned)
## Output 6.3

## Input Lookup: Kd / WT CBL-B (36-427) (Homo sapiens, UniProt Q13191) / C[C@@H](c1nc(C(F)(F)F)cc2c(-c3cccc(C4(Cc5nncn5C)COC4)c3)n[nH]c12)N1CCNC(=O)C1 (single isomer, unassigned)
## Output 2.7

## Input Lookup: Kd / WT CBL-B (36-427) (Homo sapiens, UniProt Q13191) / C[C@@H](c1nc(C(F)(F)F)cc2c(-c3cccc(C4(Cc5nncn5C)COC4)c3)n[nH]c12)N1CC[C@@H](F)C1 (single isomer, unassigned)
## Output 8.3
